Target: Grb2 SH2 (UniProt P62993)
Sequence (P62993 whole entry, looked up): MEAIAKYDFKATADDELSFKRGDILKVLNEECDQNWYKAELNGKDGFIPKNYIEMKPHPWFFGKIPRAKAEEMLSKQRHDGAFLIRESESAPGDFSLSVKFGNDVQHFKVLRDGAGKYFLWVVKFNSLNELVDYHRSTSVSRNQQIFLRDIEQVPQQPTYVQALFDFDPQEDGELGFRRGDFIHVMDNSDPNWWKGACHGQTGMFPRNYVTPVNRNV
Experiment: SH2 binding enrichment of the phosphorylated peptide, bacterial display (enrichment ratio); higher = better substrate or ligand; peptides without Tyr show the background
Below, each entry is listed with its recorded SH2 binding enrichment.
Lab note: record just the number, no unit beside it.

ADQLDYIKALN [HPRT1_Y81_L78Q]; 0.914

Print Grb2 SH2 (UniProt P62993) SH2 binding enrichment for FPLELYERVRI [PRKCG_Y312_M317I_YF] .
0.854

Print Grb2 SH2 (UniProt P62993) SH2 binding enrichment for PESIMYWKFTT [NTRK3_Y744_R745W] .
0.767

Print Grb2 SH2 (UniProt P62993) SH2 binding enrichment for PFFASYPPSPD [GDAP2_Y491_T489A_YF] .
1.01

Print Grb2 SH2 (UniProt P62993) SH2 binding enrichment for RELSWYRGRRP [HESX1_Y106] .
0.734

Print Grb2 SH2 (UniProt P62993) SH2 binding enrichment for VYYDLYGGEKF [PTPN11_Y66_D61V] .
1.34

----------
Molecular target: FGFR3 (UniProt P22607)
Sequence (P22607 whole entry, looked up): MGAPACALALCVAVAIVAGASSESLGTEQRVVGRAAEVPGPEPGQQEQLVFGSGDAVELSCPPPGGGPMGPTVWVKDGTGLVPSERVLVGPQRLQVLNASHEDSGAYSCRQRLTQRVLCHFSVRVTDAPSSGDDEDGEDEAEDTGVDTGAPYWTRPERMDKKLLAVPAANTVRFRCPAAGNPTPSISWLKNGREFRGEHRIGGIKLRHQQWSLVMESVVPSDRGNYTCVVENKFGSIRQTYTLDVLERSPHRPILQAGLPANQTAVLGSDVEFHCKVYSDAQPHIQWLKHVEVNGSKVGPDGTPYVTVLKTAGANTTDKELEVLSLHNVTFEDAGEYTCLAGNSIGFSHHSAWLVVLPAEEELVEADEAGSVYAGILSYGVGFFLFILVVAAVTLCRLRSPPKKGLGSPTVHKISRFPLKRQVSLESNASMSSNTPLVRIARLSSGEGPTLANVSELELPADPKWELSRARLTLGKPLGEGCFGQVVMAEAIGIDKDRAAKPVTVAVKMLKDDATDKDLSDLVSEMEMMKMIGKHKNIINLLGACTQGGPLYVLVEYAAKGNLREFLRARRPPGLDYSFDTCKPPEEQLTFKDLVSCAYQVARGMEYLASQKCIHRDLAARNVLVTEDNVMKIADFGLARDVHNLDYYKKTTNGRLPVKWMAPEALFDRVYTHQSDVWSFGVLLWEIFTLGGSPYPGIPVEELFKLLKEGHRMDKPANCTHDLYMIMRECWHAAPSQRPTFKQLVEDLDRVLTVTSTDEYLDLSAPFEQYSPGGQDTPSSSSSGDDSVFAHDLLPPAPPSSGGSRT
Assay: phosphorylation enrichment, bacterial display (enrichment ratio); higher = better substrate or ligand; peptides without Tyr show the background
Recorded Metric: phosphorylation enrichment

These recorded examples may help you get a feel for the data.
YENGEYIIRQG [PRKG1_Y247]; 0.611
IKRIDYEFVEM [ADA_Y84_A83D]; 0.742

Print FGFR3 (UniProt P22607) phosphorylation enrichment for SLGKGYSVGGC [MC4R_Y35_D37V] .
0.627

Print FGFR3 (UniProt P22607) phosphorylation enrichment for EPNSRYTFKLE [USH2A_Y3745_YF] .
0.596

Print FGFR3 (UniProt P22607) phosphorylation enrichment for PFRKLYESVKK [MKI67_Y241_W238R] .
0.685

Print FGFR3 (UniProt P22607) phosphorylation enrichment for GMTRNYIIFIE [BCO2_Y294] .
0.745

Print FGFR3 (UniProt P22607) phosphorylation enrichment for TNEYEYDELIV [TGM1_Y136_D132N] .
0.925

Print FGFR3 (UniProt P22607) phosphorylation enrichment for QEGPEYWDRET [HLA-A_Y83_Q86R] .
1.08

Print FGFR3 (UniProt P22607) phosphorylation enrichment for EILLSDLRTGY [TGM1_Y365_Y365D] .
0.616

----------
Target: EPHB1 (UniProt P54762)
Sequence (P54762 whole entry, looked up): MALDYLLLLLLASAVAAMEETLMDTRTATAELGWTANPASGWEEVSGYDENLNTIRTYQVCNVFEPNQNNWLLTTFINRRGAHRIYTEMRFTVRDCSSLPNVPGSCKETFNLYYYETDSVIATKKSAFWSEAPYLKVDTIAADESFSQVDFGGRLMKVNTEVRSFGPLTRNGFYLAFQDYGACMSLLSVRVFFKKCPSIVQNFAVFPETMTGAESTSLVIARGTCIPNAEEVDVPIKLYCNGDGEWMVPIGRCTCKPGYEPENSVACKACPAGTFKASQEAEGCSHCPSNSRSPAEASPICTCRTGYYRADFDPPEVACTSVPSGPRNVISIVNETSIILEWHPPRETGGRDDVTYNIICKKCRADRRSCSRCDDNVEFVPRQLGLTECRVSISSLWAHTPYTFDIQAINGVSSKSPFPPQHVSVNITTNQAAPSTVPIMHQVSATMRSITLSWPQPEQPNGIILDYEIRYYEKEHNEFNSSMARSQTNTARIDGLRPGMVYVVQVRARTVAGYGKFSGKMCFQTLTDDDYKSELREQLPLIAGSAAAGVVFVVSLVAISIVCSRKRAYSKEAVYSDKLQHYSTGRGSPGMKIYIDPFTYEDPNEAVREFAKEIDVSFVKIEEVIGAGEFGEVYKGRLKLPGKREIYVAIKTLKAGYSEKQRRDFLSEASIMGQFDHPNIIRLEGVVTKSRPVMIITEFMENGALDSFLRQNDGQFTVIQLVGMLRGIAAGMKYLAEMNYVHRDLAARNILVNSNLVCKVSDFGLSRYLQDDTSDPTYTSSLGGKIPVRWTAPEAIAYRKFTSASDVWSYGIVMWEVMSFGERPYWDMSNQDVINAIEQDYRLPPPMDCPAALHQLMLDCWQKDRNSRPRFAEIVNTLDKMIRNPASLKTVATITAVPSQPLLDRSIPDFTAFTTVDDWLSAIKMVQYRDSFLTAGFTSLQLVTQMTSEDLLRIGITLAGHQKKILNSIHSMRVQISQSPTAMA
Assay: phosphorylation enrichment, bacterial display (enrichment ratio); higher = better substrate or ligand; peptides without Tyr show the background
Decision: phosphorylation enrichment >= 0.8 yields condition met, all other cases yield condition not met.

# count of solved cases: 3
CPPKVYELMRA [ABL2_Y515]; condition met
LEGKEYRMSGE [KRT3_Y511_E509K]; condition not met
PIFEGYALPHA [ACTA1_Y171_YF]; condition not met

Check if phosphorylation enrichment >= 0.8 (inclusive). Item: IVVVPYEPPEV [TP53_Y220_S215I]
condition not met

Check if phosphorylation enrichment >= 0.8 (inclusive). Item: IVFTSYVLTIL [TAS2R16_Y239_F240V]
condition met

Check if phosphorylation enrichment >= 0.8 (inclusive). Item: DEEYEYMNRRR [ERBB3_Y1199]
condition not met

Check if phosphorylation enrichment >= 0.8 (inclusive). Item: GPIEVYLCPEE [E2F3_Y349]
condition not met

Check if phosphorylation enrichment >= 0.8 (inclusive). Item: RFVTRYIFNRE [HLA-DQB1_Y62_YF]
condition not met

Check if phosphorylation enrichment >= 0.8 (inclusive). Item: AGADGYGYLAP [FOXL2_Y186]
condition not met

Check if phosphorylation enrichment >= 0.8 (inclusive). Item: GLAELYEFQKK [CKAP5_Y1854_K1857Q_YF]
condition not met

Check if phosphorylation enrichment >= 0.8 (inclusive). Item: ERIEFYELNKK [PMM2_Y145_D148N]
condition not met

Check if phosphorylation enrichment >= 0.8 (inclusive). Item: YEEDSYVERSQ [RET_Y905_K907E]
condition not met

Check if phosphorylation enrichment >= 0.8 (inclusive). Item: PLLEYYRDIFT [CDAN1_Y713]
condition met

Check if phosphorylation enrichment >= 0.8 (inclusive). Item: ALKKPYSVLFK [RPF2_Y59_G60S_YF]
condition not met

Check if phosphorylation enrichment >= 0.8 (inclusive). Item: VGTKWYMAPEV [ACVRL1_Y375_R374W]
condition met

Check if phosphorylation enrichment >= 0.8 (inclusive). Item: HELYVYKCDEN [DOCK3_Y548]
condition not met

Check if phosphorylation enrichment >= 0.8 (inclusive). Item: QMRLRYLAAEE [CEP120_Y884]
condition not met

Check if phosphorylation enrichment >= 0.8 (inclusive). Item: WCKPPYFSCAV [MMS22L_Y28]
condition not met

Check if phosphorylation enrichment >= 0.8 (inclusive). Item: EGNERYEGYCV [GRIA3_Y451]
condition not met

Check if phosphorylation enrichment >= 0.8 (inclusive). Item: LHAAAYWNALA [UQCRC2_Y182_R183W]
condition not met

Check if phosphorylation enrichment >= 0.8 (inclusive). Item: SSYDIYHLSRE [KIR3DL2_Y253]
condition met

Check if phosphorylation enrichment >= 0.8 (inclusive). Item: DGTGHYLCNAC [GATA5_Y208]
condition not met

Check if phosphorylation enrichment >= 0.8 (inclusive). Item: FMLFQYLKQIE [RPAP3_Y569_D564Y_YF]
condition not met
